This collection of values is drawn from ChEMBL document CHEMBL1201862.

- Tested on: LXFL 529
- Test Name: NCI tumour cell line growth inhibition, 48 h
Calls of active or inactive are those of the source. Rule as the data show it: active = GI50 up to about 1.1 µM and inactive = higher.
Reported GI50 values for a set of compounds

Sample records with GI50:
C/C(=N/NC(N)=S)c1ccc2ccccc2c1 = 22.3 µM (inactive)
CC(=O)Nc1c(C)ccc2c1C(=O)c1ccccc1C2=O = > 100 µM (inactive)
CC(C)(C)c1cc(C(O)(C(F)(F)F)C(F)(F)F)c2c(c1)C(C(F)(F)F)(C(F)(F)F)OC(c1ccccc1)(C(C)(C)C)N2 (stereo not given) = 3.28 µM (inactive)
O=C(N/C(=C\c1cc(Cl)ccc1Cl)c1nc2c(O)nc(S)nc2[nH]1)c1ccccc1 = 15.6 µM (inactive)

Kindly note the recorded GI50 for COC(=O)CC1(O)C(=O)OCc2c1cc1n(c2=O)Cc2c-1nc1ccccc1c2OC (stereo not given) , which is 23.2 µM (inactive)

----------
- System: HT-29
- Test Name: NCI tumour cell line growth inhibition, 48 h
Calls of active or inactive are those of the source. No stated cut-off is given here; in the data, active = GI50 up to about 1.1 µM and inactive = higher.
Measurement Type: GI50

Sample records with GI50:
COc1ccc(/C=C2/C(=O)C(c3ccccc3)N(c3ccccc3)C2=O)cc1OC (stereo not drawn) = > 10 µM (inactive)
COC(=O)CC1(O)C(=O)OCc2c1cc1n(c2=O)Cc2c-1nc1ccccc1c2OC (stereo not drawn) = 2.17 µM (inactive)
CC(=O)NC1C(OCc2ccccc2)OC(CO)C(O)C1OC(C)C(=O)NC(C(=O)NC(CCC(=O)NCCCCNc1c2ccccc2nc2cccc([N+](=O)[O-])c12)C(N)=O)C(C)C (stereo not drawn) = 1.14 µM (inactive)
CC(C)(C)c1cc(C(O)(C(F)(F)F)C(F)(F)F)c2c(c1)C(C(F)(F)F)(C(F)(F)F)OC(c1ccccc1)(C(C)(C)C)N2 (stereo not drawn) = 3.4 µM (inactive)
O=C1C(O)=C(C(CCc2ccccc2)C2=C(O)C(=O)c3ccccc3C2=O)C(=O)c2ccccc21 = 18.8 µM (inactive)

Kindly note the recorded GI50 for `COC(=O)CCc1cc(OC)c2c(c1)[C@H](C(=O)OC)[C@@H](c1ccc(O)c(OC)c1)O2` , which is 36.2 µM (inactive)

Kindly note the recorded GI50 for `COc1ccc2nc3cc(Cl)ccc3c(Nc3ccccc3-c3ccccc3Nc3c4ccc(Cl)cc4nc4ccc(OC)cc34)c2c1` , which is 10.5 µM (inactive)

Kindly note the recorded GI50 for `CCOCN/C(N)=N\C#N` , which is > 100 µM (inactive)

----------
- System: OVCAR-4
- Test Name: NCI tumour cell line growth inhibition, 48 h
Structures can show the parent of a compound that is named as a salt. Calls of active or inactive are those of the source. Cut-off read from the data, not from the text of the source: active = GI50 up to about 1.1 µM and inactive = higher.
Measurement Type: GI50

Sample records with GI50:
COc1ccc(Cc2nccc3cc(OC)c(OC)cc23)cc1OC [PAPAVERINE HYDROCHLORIDE] = > 100 µM (inactive)
C/C(=N/NC(N)=S)c1ccc2ccccc2c1 = 28.3 µM (inactive)
NC(CNO)C(=O)O (stereo unspecified) = > 100 µM (inactive)

Kindly note the recorded GI50 for `CCc1nc(N)nc(N)c1-c1ccc2c(c1)nnn2CCc1ccccc1` , which is 20.8 µM (inactive)

Kindly note the recorded GI50 for CC1(O)CC2(O)C=CC3=C(C(=O)c4cccc(O)c4C3=O)C2(O)C(=O)C1O (stereo unspecified) , which is 1.51 µM (inactive)

Kindly note the recorded GI50 for `Nc1nc(-c2cccnc2)cc(-c2cc(-c3cccnc3)nc(N)n2)n1` , which is > 100 µM (inactive)

Kindly note the recorded GI50 for CC1c2ccccc2Cn2cc3c(c21)C(=O)c1cccc(OP(=O)(O)OCc2ccccc2)c1C3=O (stereo unspecified) , which is > 100 µM (inactive)

Kindly note the recorded GI50 for `Cc1cc(N(CCC#N)CCC#N)ccc1/C=C1N=C(/C=C\c2ccccc2)OC\1=O` , which is > 100 µM (inactive)

Kindly note the recorded GI50 for `CC12c3c4cccc3Oc3cc(N)cc(c31)Oc1cc(N)cc(c12)O4` , which is 10.4 µM (inactive)

Kindly note the recorded GI50 for `O=C(Nc1nc2ccccc2s1)c1cc([N+](=O)[O-])ccc1Cl` , which is 8.39 µM (inactive)

Kindly note the recorded GI50 for `COC(=O)CC[N+]1=CCC(c2ccccc2)(c2ccccc2)O1` , which is > 100 µM (inactive)

----------
- Test system: SF-539
- Test Name: NCI tumour cell line growth inhibition, 48 h
Activity calls are given as the source filed them. Rule as the data show it: active = GI50 up to about 1.1 µM and inactive = higher.
Please answer using one outcome listed in active, inactive

COc1cc([C@@H]2c3[nH]c4ccccc4c3C(Nc3ccc([N+](=O)[O-])cc3)[C@H]3COC(=O)N23)cc(OC)c1O (some centres undefined) = active
CC(=O)N[C@@H](Cc1ccc(O)cn1)C(=O)NCc1ccc2c(c1)OCO2 = inactive
C/C(=N\NC(N)=O)C(CN1CCOCC1)C(c1ccccc1)c1c(O)c2ccccc2oc1=O (centres undefined) = inactive

Hello, I am checking results. What call was entered for Cc1ccc(S(=O)(=O)CC2(Br)CCc3ccccc3C2=O)cc1 (centres undefined) ?
inactive

Hello, I am checking results. What call was entered for CCCN1CN(C(C(=O)N[C@@H]2C(=O)N3C(C(=O)O)=C(C)CSC23)c2ccc(O)cc2)CSC1=S (some centres undefined) ?
inactive

Hello, I am checking results. What call was entered for `CC(C)(CN1CCOCC1)C(=O)/C=C/c1ccc(/C=C/C(=O)C(C)(C)CN2CCOCC2)cc1` ?
inactive

Hello, I am checking results. What call was entered for COC(=O)C1(C)CCCC2(C)c3cc(OC)ccc3C(=O)C(Br)C12 (centres undefined) ?
inactive

Hello, I am checking results. What call was entered for `C[C@H](CCCOS(C)(=O)=O)[C@H]1CC[C@H]2[C@@H]3CC[C@@H]4C[C@H](OS(C)(=O)=O)CC[C@]4(C)[C@H]3CC[C@]12C` ?
inactive

Hello, I am checking results. What call was entered for `O=C1c2cc(CCl)sc2C(=O)c2ccsc21` ?
active

----------
- Tested on: IGROV-1
- Test Name: NCI tumour cell line growth inhibition, 48 h
Calls of active or inactive are those of the source. Rule as the data show it: active = GI50 up to about 1.1 µM and inactive = higher.
Please answer using one outcome listed in T (active), F (inactive)

Example entries begin here.
COc1cc2nc(-c3ccc4ccccc4c3)nc(O)c2cc1OC = F
CC(=O)OC1CCC2(C)C(=CCC3C4CCC5(OC6CC(C)CN(C(C)=O)C6C5C)C(C)=C4C(=O)C32)C1 (stereo not given) = F

Hello, I am checking results. What call was entered for `Cc1cc(N(CCC#N)CCC#N)ccc1/C=C1N=C(/C=C\c2ccccc2)OC\1=O` ?
F

Hello, I am checking results. What call was entered for `CCCCCCCCCCCCCP(=O)(O)NCC(N)=O` ?
F

Hello, I am checking results. What call was entered for `O=C1C(O)=C(C(CCc2ccccc2)C2=C(O)C(=O)c3ccccc3C2=O)C(=O)c2ccccc21` ?
F

Hello, I am checking results. What call was entered for `CC(C)Oc1cccc(N2C(Nc3ccccc3)=Nc3ccncc3S2(=O)=O)c1` ?
F

Hello, I am checking results. What call was entered for `Cc1c(C(=O)/C=C/c2ccccc2[N+](=O)[O-])[n+]([O-])c2ccccc2[n+]1[O-]` ?
F

Hello, I am checking results. What call was entered for `CCN(CCCl)CCCCCNc1c2ccccc2nc2ccc(OC)cc12` ?
T

Hello, I am checking results. What call was entered for `COc1ccc(C(=O)/C=C2\c3ccccc3C(=O)N2C)cc1` ?
F

Hello, I am checking results. What call was entered for C=C(C)C(=O)OC1CCC2(C)C(CCC3C2CCC2(C)C(c4ccc(=O)oc4)CC4OC432)C1 (stereo not given) ?
F

Hello, I am checking results. What call was entered for CN(C)CCNC(=O)c1cccc2c(NC(CCC(N)=O)C(=O)O)c3ccccc3nc12 (stereo not given) ?
F

Hello, I am checking results. What call was entered for CCOC(OCC)C(CCc1ccccc1)c1c(N)nc(N)[nH]c1=O (stereo not given) ?
F

----------
- Test system: PC-3
- Test Name: NCI tumour cell line growth inhibition, 48 h
Activity calls are given as the source filed them. Rule as the data show it: active = GI50 up to about 1.1 µM and inactive = higher. Peptide text beside a SMILES is read from it. * marks the point of attachment. Cbz = O=C(OCc1ccccc1)*; NHNH2 = NN*
Reported GI50 values for a set of molecules

CC(C)c1ccc(C(O)(C(=O)O)c2ccc(C(C)C)cc2)cc1 = 31.6 µM (inactive)
CC(=O)N[C@@H](Cc1ccc(O)cn1)C(=O)NCc1ccc2c(c1)OCO2 = > 100 µM (inactive)
COC(=O)CC(NC(=O)OCc1ccccc1)C(=O)NC(CC(=O)OC)C(=O)NC(CC(=O)OC)C(=O)NC(CC(=O)OC)C(=O)NC(CC(=O)OC)C(=O)NC(CC(=O)OC)C(=O)NN (centres undefined) (Cbz-D(OMe)D(OMe)D(OMe)D(OMe)D(OMe)D(OMe)-NHNH2; configuration not given here) = > 100 µM (inactive)

Proceeding to the next molecule to report its GI50.
Kindly note the recorded GI50 for CC1CC/C(=C\c2ccc(F)cc2)C2=C1C(c1ccc(F)cc1)n1c(s/c(=C/c3cccc(Br)c3)c1=O)=N2 (centres undefined) , which is > 100 µM (inactive)
